Entry source: ChEMBL document CHEMBL2424642

Biological target: UniProt:P04150
Sequence (P04150 whole entry): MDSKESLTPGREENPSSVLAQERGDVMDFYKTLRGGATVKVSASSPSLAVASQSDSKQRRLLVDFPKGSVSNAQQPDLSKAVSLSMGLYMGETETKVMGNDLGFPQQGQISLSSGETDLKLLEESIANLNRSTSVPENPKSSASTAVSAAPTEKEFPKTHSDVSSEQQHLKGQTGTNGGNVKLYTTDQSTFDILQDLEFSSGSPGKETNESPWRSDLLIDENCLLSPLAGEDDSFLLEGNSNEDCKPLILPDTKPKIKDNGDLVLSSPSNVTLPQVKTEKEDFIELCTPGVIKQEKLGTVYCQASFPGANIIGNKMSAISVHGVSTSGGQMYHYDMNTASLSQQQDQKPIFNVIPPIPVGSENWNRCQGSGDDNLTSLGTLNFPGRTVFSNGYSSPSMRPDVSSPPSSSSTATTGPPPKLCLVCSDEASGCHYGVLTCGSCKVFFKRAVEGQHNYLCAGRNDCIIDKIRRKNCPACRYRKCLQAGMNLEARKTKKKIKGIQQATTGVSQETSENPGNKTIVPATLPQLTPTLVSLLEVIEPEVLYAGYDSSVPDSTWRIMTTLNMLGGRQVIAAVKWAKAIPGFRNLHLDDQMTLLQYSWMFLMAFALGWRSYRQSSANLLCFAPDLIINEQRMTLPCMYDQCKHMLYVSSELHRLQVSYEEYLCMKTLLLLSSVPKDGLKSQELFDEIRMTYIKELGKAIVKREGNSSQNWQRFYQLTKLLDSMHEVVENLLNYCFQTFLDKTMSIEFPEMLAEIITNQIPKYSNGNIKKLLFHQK
Experiment: Transactivation of GR-LBD expressed in human HeLa cells co-expressing GAL4-DBD by luciferase reporter gene assay
Type: cell-based
Measured Property: EC50 (nM)
Field: numeric (nM). Do not append units.

Input line: Query EC50 on UniProt:P04150 for CC(C)(C(=O)Nc1nccs1)C(c1ccccc1)c1ccn2c(-c3ccccc3)ncc2c1 (centres undefined)
Output line: 360

Input line: Also CC(C)(C(=O)Nc1nncs1)C(c1ccccc1)c1ccc2c(-c3ccc(F)cc3)ncn2c1 (single isomer, unassigned; enantiomer 2) , if possible.
Output line: 118

* * *

Measured Efficacy of individual entries
Biological target: Glucocorticoid receptor (Homo sapiens) (UniProt P04150)
Assay: Transrepression of glucocorticoid receptor in human A549 cells assessed as inhibition of PMA-induced AP-1 activity by luciferase reporter gene assay relative to dexamethasone
Type: cell-based
Expressed in %, but write only the number.

Compound: CC(C)(C(=O)Nc1nccs1)C(c1ccccc1)c1ccc2c(-c3ccc(F)cc3)ncn2c1 (single isomer, unassigned; enantiomer 2)
Measured On: Glucocorticoid receptor (Homo sapiens) (UniProt P04150)
Display Unit: %
Efficacy: 73

Compound: CC(C)(C(=O)Nc1nccs1)C(c1ccccc1)c1ccc2c(-c3cccc(C#N)c3)ncn2c1 (stereo not drawn)
Measured On: Glucocorticoid receptor (Homo sapiens) (UniProt P04150)
Display Unit: %
Efficacy: 30

Input line: Name the recorded Efficacy for CC(C)(C(=O)Nc1nncs1)C(c1ccccc1)c1ccc2c(-c3ccc(F)cc3)ncn2c1 (stereo not drawn) .
Output line: 68

* * *

Target: Glucocorticoid receptor (Homo sapiens) (UniProt P04150)
Experiment: Transrepression of glucocorticoid receptor in human A549 cells assessed as inhibition of PMA-induced AP-1 activity by luciferase reporter gene assay relative to dexamethasone
Format: cell-based
Measured Property: Efficacy
Please make sure the unit comes right after the number.

Study these solved cases before continuing.
Compound: CC(C)(C(=O)Nc1nncs1)C(c1ccccc1)c1ccn2c(-c3ccccc3)ncc2c1 (single isomer, unassigned; enantiomer 2)
Efficacy: 61%
--
Compound: CC(C)(C(=O)Nc1nncs1)C(c1ccccc1)c1ccn2c(-c3ccccc3)ncc2c1 (configuration not stated)
Efficacy: 66%
--
Compound: CC(C)(C(=O)Nc1nccs1)C(c1ccccc1)c1ccc2[nH]ccc2c1 (configuration not stated)
Efficacy: 61%
--
Compound: CC(C)(C(=O)Nc1nncs1)C(c1ccccc1)c1ccn2c(-c3ccccc3)ncc2c1 (single isomer, unassigned; enantiomer 1)
Efficacy: 34%
--
Compound: CC(C)(C(=O)Nc1nccs1)C(c1ccccc1)c1ccc2c(ccn2-c2ccc(F)cc2)c1 (configuration not stated)
Efficacy: 60%

Input line: For the compound shown here, CC(C)(C(=O)Nc1nncs1)C(c1ccccc1)c1ccc2c(-c3ccc(F)cc3)ncn2c1 (single isomer, unassigned; enantiomer 2) , give the reported Efficacy.
Output line: 72%

Input line: Subsequent entry: CC(C)(C(=O)Nc1nccs1)C(c1ccccc1)c1ccn2c(-c3ccccc3)ncc2c1 (configuration not stated)
Output line: 70%

Input line: Okay, and CC(C)(C(=O)Nc1nccs1)C(c1ccccc1)c1ccc2c(-c3ccc(F)cc3F)ncn2c1 (configuration not stated) ?
Output line: 75%

Input line: What about CC(C)(C(=O)Nc1nccs1)C(c1ccccc1)c1ccc2c(-c3ccc(F)cc3)ncn2c1 (configuration not stated) ?
Output line: 66%

Input line: Moving on to CC(C)(C(=O)Nc1nncs1)C(c1ccccc1)c1ccc2c(-c3ccc(F)cc3F)ncn2c1 (configuration not stated)
Output line: 69%

Input line: Then what about the compound CC(C)(C(=O)Nc1nccs1)C(c1ccccc1)c1ccc2c(-c3ccc(C#N)cc3)ncn2c1 (configuration not stated) ?
Output line: 37%

Input line: Also CC(C)(C(=O)Nc1nncs1)C(c1ccccc1)c1ccc2c(-c3ccc(F)cc3)ncn2c1 (single isomer, unassigned; enantiomer 1) ?
Output line: 24%

Input line: How about this compound: CC(C)(C(=O)Nc1nncs1)C(c1ccccc1)c1ccc2c(-c3cccc(C#N)c3)ncn2c1 (configuration not stated)
Output line: 32%

Input line: Subsequent entry: CC(C)(C(=O)Nc1nccs1)C(c1ccccc1)c1ccc2c(-c3ccc(F)c(Cl)c3)ncn2c1 (configuration not stated)
Output line: 26%

Input line: Record: CC(C)(C(=O)Nc1nncs1)C(c1ccccc1)c1ccc2c(-c3ccc(F)c(Cl)c3)ncn2c1 (configuration not stated)
Output line: 20%

Input line: Next up: CC(C)(C(=O)Nc1nccs1)C(c1ccccc1)c1ccn2cncc2c1 (configuration not stated)
Output line: 39%

Input line: Queued: CC(C)(C(=O)Nc1nncs1)C(c1ccccc1)c1ccc2c(-c3ccc(C#N)cc3)ncn2c1 (configuration not stated)
Output line: 37%

* * *

Target: Glucocorticoid receptor (Homo sapiens)
Test: Transrepression of glucocorticoid receptor in human A549 cells assessed as inhibition of PMA-induced AP-1 activity by luciferase reporter gene assay
Format: cell-based
Measured Property: EC50 (µM)
Please reply with the bare figure in µM and do not write the unit itself.

Some solved entries appear below for comparison.
Compound: CC(C)(C(=O)Nc1nccs1)C(c1ccccc1)c1ccc2c(-c3ccc(F)cc3F)ncn2c1 (centres undefined)
Measured On: Glucocorticoid receptor (Homo sapiens)
Display Unit: µM
Value Reported: 0.014
//
Compound: CC(C)(C(=O)Nc1nncs1)C(c1ccccc1)c1ccc2c(-c3ccc(C#N)cc3)ncn2c1 (centres undefined)
Measured On: Glucocorticoid receptor (Homo sapiens)
Display Unit: µM
Value Reported: 0.14
//
Compound: CC(C)(C(=O)Nc1nncs1)C(c1ccccc1)c1ccc2c(-c3ccc(F)cc3)ncn2c1 (single isomer, unassigned; enantiomer 2)
Measured On: Glucocorticoid receptor (Homo sapiens)
Display Unit: µM
Value Reported: 0.024
//
Compound: CC(C)(C(=O)Nc1nccs1)C(c1ccccc1)c1ccc2c(-c3ccc(C#N)cc3)ncn2c1 (centres undefined)
Measured On: Glucocorticoid receptor (Homo sapiens)
Display Unit: µM
Value Reported: 0.089

Now consider the entry below.
Input line: Please look up its EC50: CC(C)(C(=O)Nc1nncs1)C(c1ccccc1)c1ccn2c(-c3ccccc3)ncc2c1 (single isomer, unassigned; enantiomer 1)
Output line: 1.12

* * *

Molecular target: Glucocorticoid receptor (Homo sapiens)
Assay: Transrepression of glucocorticoid receptor in human A549 cells assessed as inhibition of PMA-induced AP-1 activity by luciferase reporter gene assay
Type: cell-based
# EC50 per record follows

# count of solved cases: 6
Molecule: CC(C)(C(=O)Nc1nncs1)C(c1ccccc1)c1ccc2c(-c3ccc(F)c(Cl)c3)ncn2c1 (configuration not stated)
Measured Property: EC50
Value Reported: 111 nM
--
Molecule: CC(C)(C(=O)Nc1nccs1)C(c1ccccc1)c1ccc2[nH]ccc2c1 (configuration not stated)
Measured Property: EC50
Value Reported: 230 nM
--
Molecule: CC(C)(C(=O)Nc1nccs1)C(c1ccccc1)c1ccc2c(-c3ccc(F)cc3)ncn2c1 (configuration not stated)
Measured Property: EC50
Value Reported: 16 nM
--
Molecule: CC(C)(C(=O)Nc1nccs1)C(c1ccccc1)c1ccn2c(-c3ccccc3)ncc2c1 (single isomer, unassigned; enantiomer 1)
Measured Property: EC50
Value Reported: > 2500 nM
--
Molecule: CC(C)(C(=O)Nc1nncs1)C(c1ccccc1)c1ccc2c(-c3ccc(F)cc3)ncn2c1 (single isomer, unassigned; enantiomer 1)
Measured Property: EC50
Value Reported: 1200 nM
--
Molecule: CC(C)(C(=O)Nc1nccs1)C(c1ccccc1)c1ccn2cncc2c1 (configuration not stated)
Measured Property: EC50
Value Reported: 1200 nM

Next molecule, EC50 to be filled in.
Input line: What does the record list as EC50 for CC(C)(C(=O)Nc1nncs1)C(c1ccccc1)c1cc(-c2ccc(F)cc2)c2ncccc2c1 (configuration not stated) ?
Output line: > 10000 nM
